target-or-system: DEN2 CE (Dengue virus type 2, UniProt P29990)
Sequence (P29990 2493-2755 limits assumed): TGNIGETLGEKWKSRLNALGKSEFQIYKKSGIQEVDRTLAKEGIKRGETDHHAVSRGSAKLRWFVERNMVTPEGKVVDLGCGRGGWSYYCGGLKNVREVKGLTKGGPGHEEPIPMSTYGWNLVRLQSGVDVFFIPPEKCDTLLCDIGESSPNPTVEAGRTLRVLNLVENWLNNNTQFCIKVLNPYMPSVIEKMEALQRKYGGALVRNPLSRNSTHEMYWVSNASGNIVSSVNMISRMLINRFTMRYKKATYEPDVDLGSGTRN
Assay type: binding, dengue virus 2 (strain 16681)
conditions-used: read-out: apparent Ki, FP, DEN
readout: Ki (µM)
Give bare numbers, in µM.

compound="Cc1ccc(C)n1C(Cc1c[nH]c2ccccc12)C(=O)O (centres unmarked)" measurement_units=µM recorded_number=10.1

For the next question, use this compound.
Hello, please tell me recorded Ki for this one: `COC(=O)[n+]1ccc(N2CCOCC2)cc1` 4.8
